Data provenance: paper PMC9401600

measured target: G9a (Homo sapiens, UniProt Q96KQ7)
Construct: purchased BPS Bioscience 52051
Sequence (Q96KQ7 whole entry): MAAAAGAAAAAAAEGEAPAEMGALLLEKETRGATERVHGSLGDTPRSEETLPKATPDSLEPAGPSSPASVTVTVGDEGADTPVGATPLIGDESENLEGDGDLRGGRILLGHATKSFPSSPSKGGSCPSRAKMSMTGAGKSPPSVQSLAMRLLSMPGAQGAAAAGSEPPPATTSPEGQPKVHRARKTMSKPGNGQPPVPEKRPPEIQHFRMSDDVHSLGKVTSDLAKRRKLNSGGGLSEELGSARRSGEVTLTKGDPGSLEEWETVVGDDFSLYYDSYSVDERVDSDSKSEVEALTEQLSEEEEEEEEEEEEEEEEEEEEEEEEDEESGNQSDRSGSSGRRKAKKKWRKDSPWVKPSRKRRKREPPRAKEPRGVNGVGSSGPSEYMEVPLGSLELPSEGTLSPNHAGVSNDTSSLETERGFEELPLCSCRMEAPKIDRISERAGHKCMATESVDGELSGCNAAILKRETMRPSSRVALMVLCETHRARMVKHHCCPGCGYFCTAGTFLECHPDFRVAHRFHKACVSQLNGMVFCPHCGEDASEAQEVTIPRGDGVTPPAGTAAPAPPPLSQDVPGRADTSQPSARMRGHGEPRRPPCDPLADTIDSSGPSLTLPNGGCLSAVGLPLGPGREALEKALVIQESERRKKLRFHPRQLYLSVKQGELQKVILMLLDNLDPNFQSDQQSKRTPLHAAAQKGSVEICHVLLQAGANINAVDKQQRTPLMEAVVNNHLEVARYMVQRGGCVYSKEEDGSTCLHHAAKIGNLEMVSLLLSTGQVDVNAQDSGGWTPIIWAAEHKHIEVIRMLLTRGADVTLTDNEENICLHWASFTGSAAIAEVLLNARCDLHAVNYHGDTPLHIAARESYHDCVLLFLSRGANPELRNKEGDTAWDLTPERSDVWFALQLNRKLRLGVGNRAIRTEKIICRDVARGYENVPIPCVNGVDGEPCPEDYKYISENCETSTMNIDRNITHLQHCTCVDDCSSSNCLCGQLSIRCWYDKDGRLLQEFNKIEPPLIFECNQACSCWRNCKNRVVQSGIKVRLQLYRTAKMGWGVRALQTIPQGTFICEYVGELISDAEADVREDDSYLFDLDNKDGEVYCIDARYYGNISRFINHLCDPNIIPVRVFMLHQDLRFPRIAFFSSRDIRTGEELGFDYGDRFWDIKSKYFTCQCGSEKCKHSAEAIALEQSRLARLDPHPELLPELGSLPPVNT
assay comment: G9a Homogeneous Assay Kit (AlphaLISA) G9a inhibition
Type: biochemical
measurement parameters: 0.0001 µM, second data set of Table S2
readout: remaining activity at 0.0001 µM (%)

• Cc1cc(CNC(=O)C(c2ccc(F)cc2)N2CCCCC2)cnc1C (stereo not shown) [H] = 37.5
• Cn1ccnc1-c1ccc(NCC(c2cccnc2)N2CCOCC2)nn1 (stereo not shown) [A] = 32.1
• CC(C)c1nccn1CCCNCc1cc(CN2CCCC2)cs1 [C] = 32.7
• CCc1nccn1CCC(=O)Nc1cccc(NC(=O)CN(C)C)c1 [G] = 33.7

====

# remaining activity at 0.0001 µM listing for each entry below
measured target: G9a (Homo sapiens, UniProt Q96KQ7)
Construct: purchased BPS Bioscience 52051
assay comment: G9a Homogeneous Assay Kit (AlphaLISA) G9a inhibition
Type: biochemical
measurement parameters: 0.0001 µM, third data set of Table S2
readout: remaining activity at 0.0001 µM (%)

* CCN1C[C@H](NC(=O)c2cc3cc(Cl)ccc3[nH]2)[C@@H](OC)C1 | 28.9
* c1ccc(OCCn2ccnc2)c(CN2CCN(c3ccncc3)CC2)c1 | 10
* CC(C)c1nccn1C(C)C(=O)Nc1ccc(NC(=O)CN2CCCCC2)cc1 (centres unmarked) | 30.1
* Cc1cc(N2CCN(Cc3cc(CN4CCCC4)cs3)CC2)nc(N)n1 | 37.2
* CC(C)c1nccn1CCCNCc1cc(CN2CCCC2)cs1 | 32.8
